# pKd per entry
# testedOn: T1, Cynomolgus monkey latent myostatin (cynomolgus monkey, UniProt Q95J86 25-266; Q95J86 267-375)
# T1 construct: Latent form = complex of two propeptides and the mature dimer; also called Cyno latent myostatin
# T1 sequence 1: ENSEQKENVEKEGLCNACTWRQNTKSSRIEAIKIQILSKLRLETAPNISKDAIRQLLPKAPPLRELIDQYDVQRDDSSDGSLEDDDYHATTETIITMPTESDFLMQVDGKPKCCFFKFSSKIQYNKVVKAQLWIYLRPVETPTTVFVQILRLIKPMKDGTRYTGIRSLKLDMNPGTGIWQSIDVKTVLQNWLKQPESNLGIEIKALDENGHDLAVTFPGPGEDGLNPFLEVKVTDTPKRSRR
# T1 sequence 2: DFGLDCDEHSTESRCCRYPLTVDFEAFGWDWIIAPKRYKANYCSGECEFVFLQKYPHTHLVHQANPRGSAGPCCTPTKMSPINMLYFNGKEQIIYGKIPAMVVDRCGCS
# testSummary: SPR (BIACORE T200) 37C, pH 5.8, antibody captured by ProA/G
Worth noting: pKd values are minus log10 of concentrations stated in mol/L.

Some binders with recorded pKd:
>>> recordedvalue("MS_M103205H1004-SG1/M103202L889-SK1 (antibody, human IgG1, kappa, V domains shown, also called MS1032LO07-SG1) VH: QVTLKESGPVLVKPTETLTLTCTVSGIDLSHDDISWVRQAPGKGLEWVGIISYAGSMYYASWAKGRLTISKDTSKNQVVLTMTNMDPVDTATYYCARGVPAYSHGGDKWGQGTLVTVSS VL: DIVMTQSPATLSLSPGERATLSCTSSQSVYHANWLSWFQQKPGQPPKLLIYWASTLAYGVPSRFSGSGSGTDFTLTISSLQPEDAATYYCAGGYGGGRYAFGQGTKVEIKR")
7.46
>>> recordedvalue("MS_M103205H1795-SG1/M103202L1060-SK1 (antibody, human IgG1, kappa, V domains shown, also called MS1032LO24-SG1) VH: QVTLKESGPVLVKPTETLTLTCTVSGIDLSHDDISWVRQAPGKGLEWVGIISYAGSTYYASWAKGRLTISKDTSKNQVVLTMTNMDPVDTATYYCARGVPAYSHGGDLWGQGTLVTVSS VL: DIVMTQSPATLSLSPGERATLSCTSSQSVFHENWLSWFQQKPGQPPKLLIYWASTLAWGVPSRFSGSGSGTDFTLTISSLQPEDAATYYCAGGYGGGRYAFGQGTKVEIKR")
9.03
>>> recordedvalue("MS_M103205H1057-SG1/M103202L889-SK1 (antibody, human IgG1, kappa, V domains shown, also called MS1032LO12-SG1) VH: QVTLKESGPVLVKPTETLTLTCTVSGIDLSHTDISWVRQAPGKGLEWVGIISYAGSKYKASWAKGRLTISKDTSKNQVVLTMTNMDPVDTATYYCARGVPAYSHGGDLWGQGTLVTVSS VL: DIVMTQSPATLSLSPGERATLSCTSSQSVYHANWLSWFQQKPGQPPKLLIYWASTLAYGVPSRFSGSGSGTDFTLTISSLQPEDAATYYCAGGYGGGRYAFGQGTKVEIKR")
7.45

Prompt: Supply measured pKd of MS_M103205H1186-SG1/M103202L889-SK1 (antibody, human IgG1, kappa, V domains shown, also called MS1032LO18-SG1) VH: QVTLKESGPVLVKPTETLTLTCTVSGIDLSHDDISWVRQAPGKGLEWVGIISYAGKKYYASWAKGRLTISKDTSKNQVVLTMTNMDPVDTATYYCARGVPAYSHGGDLWGQGTLVTVSS VL: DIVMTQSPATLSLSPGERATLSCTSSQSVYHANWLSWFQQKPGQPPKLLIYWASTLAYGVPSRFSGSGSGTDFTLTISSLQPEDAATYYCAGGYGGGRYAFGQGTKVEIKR in your reply.
Response: 7.09

Prompt: Supply measured pKd of MS_M103240H1246-SG1/M103202L1045-SK1 (antibody, human IgG1, kappa, V domains shown, also called MS1032LO25-SG1) VH: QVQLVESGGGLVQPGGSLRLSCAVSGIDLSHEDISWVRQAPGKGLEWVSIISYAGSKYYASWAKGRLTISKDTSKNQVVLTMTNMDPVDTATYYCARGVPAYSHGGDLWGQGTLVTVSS VL: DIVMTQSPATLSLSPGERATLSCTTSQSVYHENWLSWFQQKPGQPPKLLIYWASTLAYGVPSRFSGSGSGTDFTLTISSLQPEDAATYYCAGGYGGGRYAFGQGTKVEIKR in your reply.
Response: 7.85

Prompt: Supply measured pKd of MS_M103205H1046-SG1/M103202L889-SK1 (antibody, human IgG1, kappa, V domains shown, also called MS1032LO10-SG1) VH: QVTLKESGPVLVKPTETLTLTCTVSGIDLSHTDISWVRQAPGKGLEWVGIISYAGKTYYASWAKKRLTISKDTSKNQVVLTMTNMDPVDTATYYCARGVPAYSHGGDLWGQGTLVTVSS VL: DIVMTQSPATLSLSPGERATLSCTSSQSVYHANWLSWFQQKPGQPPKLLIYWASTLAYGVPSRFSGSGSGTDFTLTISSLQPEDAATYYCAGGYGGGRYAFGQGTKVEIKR in your reply.
Response: 7.79
